Field: abundance fitness. Provide a value for each of the variants that follow.
B1: Cytoplasmic polyadenylation element-binding protein 2, residues 513 to 575; numbered along this chain, Q7Z5Q1 (parent)
chain: KRVEVKPYVLDDQMCDECQGARCGGKFAPFFCANVTCLQYYCEFCWANIHSRAGREFHKPLVK

# Variants of: B1
# Protocol: abundance fitness (aPCA) (normalised: wild type 0, dead -1); higher = more abundant; growth selection in yeast, the domain comes from the species named
# Condition Set: Homo sapiens
The answer should be a number; do not append a unit.

// query Quick check: abundance fitness of R55Y ?
// result 0.211

// query Which abundance fitness is listed for N34S ?
// result -0.095

// query I'd like to know its abundance fitness. The variant in question is P7G
// result -0.141

// query # get_value(readout='abundance fitness', item= N34V )
// result -0.29

// query May I ask what abundance fitness has been recorded for L61E ?
// result 0.146

// query What does the data say about its abundance fitness? Entry: K59E
// result 0.168

// query Requested read-out: abundance fitness. Entry: T36D
// result 0.108

// query Dear colleague, I am looking for the recorded abundance fitness of the following variant: V5S
// result 0.105

// query Can you share its abundance fitness? I mean this variant: Y40H
// result -0.092

// query Value lookup for abundance fitness; key = Y40R
// result -0.132

// query Quick check: abundance fitness of L61F ?
// result -0.11

// query Dear colleague, I am looking for the recorded abundance fitness of the following variant: L10I
// result -0.062

// query Looking for the measured abundance fitness of H58Q , can you help?
// result -0.663

// query Given the variant S51A , what is its reported abundance fitness?
// result 0.045

// query Record request: abundance fitness value, item L61W
// result -0.137

// query // abundance fitness lookup, key: G20I
// result -0.841

// query Would you mind telling me what abundance fitness value was observed for R52K ?
// result 0.118

// query Quick one: abundance fitness of L61N ?
// result 0.033

// query Which abundance fitness reading was recorded for the variant K63M ?
// result -0.111

// query Would you mind telling me what abundance fitness value was observed for K1C ?
// result -0.276

All values here come from the Human Domainome abundance scans (Beltran et al. 2025).
